# experiment: chemical genetic growth profiling, strain panel (AID 1159580);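 further: tested at 20 µM; growth read once vehicle control cultures reached saturation at 30 °C; 1 = growth at the plate median or of vehicle wells; lower values mean less growth of the strain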
# condition.parameters: S. cerevisiae deletion strains, growth OD, locus YKR026C, strain gcn3, active compounds read low
Among all 5,500 compounds or so, about 2,000 (36%) were called active. Another 18% or so got no clear call; they are omitted. The list shows a part of the results.
Measured normalized growth by item
quantity.name: normalized growth

compound	readout.number
COC(=O)C(C)c1ccc(C(=O)c2cccs2)cc1 (configuration not stated)	1
O=C(C1CCCCC1)N1CC(=O)N2CCc3ccccc3C2C1 (configuration not stated)	1.01
O=C(O)CN(CC(=O)O)Cc1cc2c(-c3ccccc3C(=O)O)c3cc(CN(CC(=O)O)CC(=O)O)c(=O)cc-3oc2cc1O	0.986
Cc1cccc(C)c1NC1=NCCCS1	1
COC(=O)C(O)c1ccccc1 (configuration not stated)	0.981
CCCCN(CCCC)CCCOC(=O)c1ccc(N)cc1	0.993
CCCCC(=O)Oc1ccccc1C(=O)O	0.986
CCCOc1ccc(C(=O)OCCN(CC)CC)cc1N	0.984
C[C@H]1COC2=C1C(=O)C(=O)c1c2ccc2c1CCCC2(C)C	0.853
O=c1cc(-c2ccccc2O)oc2cc(O)ccc12	0.972
Cc1coc2c1C(=O)C(=O)c1c-2ccc2c1CCCC2(C)C	0.943
CCN(CC)CCOC(=O)c1ccc(N)cc1	0.99
